Reported values of Urine Na % of control for individual entries
Test system: absorption of sodium from the intestinal lumen
test_method_notes: Inhibition of intestinal sodium absorption: urinary sodium (uNa) 16 h after single oral dose in rats
Assay type: in vivo, rat
details: oral gavage, dose 10 mg/kg, 16 h post-dose
Answer with a number only, understood to be in %.

Example compounds with recorded Urine Na % of control:
compound | uom | Urine Na % of control
CN1Cc2c(Cl)cc(Cl)cc2[C@H](c2cccc(S(=O)(=O)NCCOCCOCCOCCNC(=O)c3ccc(-c4ccc(Cl)cc4)cc3)c2)C1 [compound 93] | % | 78
O=C(NCCOCCOCCOCCNS(=O)(=O)c1ccc(O[C@H]2c3ccccc3C[C@@H]2N2CCCCC2)cc1)c1cccc(C(=O)NCCOCCOCCOCCNS(=O)(=O)c2ccc(O[C@H]3c4ccccc4C[C@@H]3N3CCCCC3)cc2)c1 [compound 118] | % | 83

In the following, a different compound is considered.
Recorded Urine Na % of control of CN(CC(=O)NCCOCCOCCNC(=O)NCCOCCOCCOCCN1CCN(c2ccc(-c3nc(N=C(N)N)nc4ccc(Cl)cc34)cc2)CC1)CC(=O)NCCOCCOCCNC(=O)NCCOCCOCCOCCN1CCN(c2ccc(-c3nc(N=C(N)N)nc4ccc(Cl)cc34)cc2)CC1 [compound 45] , please.
97
